Recorded values, source the supplement of paper PMC11451515.

Quick reference: cell viability of the listed items.
tested on: P12-Ichikawa; experiment: cell viability relative to DMSO control; higher = less cytotoxic; conditions: HPLM + 10% dialyzed FBS; 48 h; 15.4 µM
The figure you give is taken to be in %; do not add the unit.

Worked cases, answers included:
INSERT INTO assay_data (molecule, quantitymeasured, measurementunits, measuredresult) VALUES
  ('CC[C@H](CC#N)OC(=O)N[C@@H](C)c1cccc(NC(=O)Nc2ccc(-c3cnco3)c(OC)c2)c1', 'cell viability', '%', 49.1),
  ('NC1(Cc2ccc(Cl)cc2)CCN(c2ncnc3[nH]ccc23)CC1', 'cell viability', '%', 65.8),
  ('COC1=C(N2CCNC(C)C2)C(=CC3=C1N(\C=C(C(O)=O)/C3=O)C4CC4)F (stereo not given)', 'cell viability', '%', 101),
  ('CN\1C(=O)/C(=C(\N=C1N2CCCC[S+]2([O-])=O)C(=O)NCC3=CC=C(F)C=C3)O', 'cell viability', '%', 109);

Next up:
Exercise: Lookup: cell viability / P12-Ichikawa / "C[C@H](NC(=O)/C(C#N)=C/c1cccc(Br)n1)c1ccccc1"
Key: 7.53

---

tested on: NOMO1; assay: AUC of viability dose-response curve (% viability x log10 dose units); higher = less sensitive; settings: RPMI 5 mM glucose + 10% dialyzed FBS; 48 h
quantityMeasured: AUC of viability dose-response curve
Please reply with the number alone, leaving off any unit.

# annotated cases, reported AUC of viability dose-response curve shown
INSERT INTO assay_data (compound, quantitymeasured, measuredresult) VALUES
  ('Cc1c(CN2CCN(C(=O)[C@H](C)O)CC2)sc2c(N3CCOCC3)nc(-c3cnc(N)nc3)nc12', 'AUC of viability dose-response curve', 308),
  ('O=c1c(-c2ccc(O)cc2)coc2cc(O[C@@H]3O[C@H](CO)[C@@H](O)[C@H](O)[C@H]3O)ccc12', 'AUC of viability dose-response curve', 467),
  ('CN1[C@@H]2CC[C@H]1CC(OC(=O)c1c[nH]c3ccccc13)C2 (some centres undefined)', 'AUC of viability dose-response curve', 444);

Here is the next item to consider.
Exercise: What value of AUC of viability dose-response curve has been reported for the following compound? "CC(C)c1cnn2c(NCc3ccccc3)cc(N[C@@H](CO)[C@H](O)CO)nc12"
Key: 302

---

tested on: P12-Ichikawa; assay: cell viability relative to DMSO control; higher = less cytotoxic; conditions: RPMI 5 mM glucose + 10% dialyzed FBS; 48 h; 0.00702 µM
quantityMeasured: cell viability (%)
// note: answer is a bare numeric in %

Sample answers from the record:
INSERT INTO measurements (compound, quantitymeasured, measuredresult) VALUES
  ('OC[C@H]1O[C@@H](O[C@@H]2[C@@H](CO)O[C@](O)(CO)[C@H]2O)[C@H](O)[C@@H](O)[C@H]1O', 'cell viability', 92.8),
  ('CCCc1nc(C(C)(C)O)c(C(=O)O)n1Cc1ccc(-c2ccccc2-c2nn[nH]n2)cc1', 'cell viability', 107),
  ('CC(=O)Oc1ccccc1C(=O)O', 'cell viability', 98.7),
  ('C[C@@H](NC1=CC=CC=C1C(O)=O)C/2=C/C(=C\N3C(=O)/C=C(\N=C23)N4CCOCC4)C', 'cell viability', 93.1),
  ('CC(=O)O[C@H]1C[C@@H]2CC[C@@H]3[C@H](CC[C@@]4(C)[C@H]3C[C@H]([N+]3(C)CCCCC3)[C@@H]4OC(C)=O)[C@@]2(C)C[C@@H]1[N+]1(C)CCCCC1', 'cell viability', 121),
  ('CC1=C(/C=C/C(C)=C/C=C/C(C)=C/C=C/C=C(C)/C=C/C=C(C)/C=C/C2=C(C)CCCC2(C)C)C(C)(C)CCC1', 'cell viability', 118);

Exercise: API: value(readout= cell viability, system= P12-Ichikawa, query= CC(C)NCC(O)COc1ccc(COCCOC(C)C)cc1 (stereo not drawn) )
Key: 107

Exercise: Then this compound: "Cc1ccc(NC(=O)c2ccc(CN3CCN(C)CC3)cc2)cc1Nc1nc(-c2cccnc2)cs1"
Key: 109
